- target system: Bfl-1 (Homo sapiens)
- Construct: lacking their C-terminal transmembrane domains (approximately last 20 amino-acids); made in house; host or cells: XL-1 Blue cells (E. coli), pGEX 4T-1
- Sequence (Q16548 1-155 limits assumed): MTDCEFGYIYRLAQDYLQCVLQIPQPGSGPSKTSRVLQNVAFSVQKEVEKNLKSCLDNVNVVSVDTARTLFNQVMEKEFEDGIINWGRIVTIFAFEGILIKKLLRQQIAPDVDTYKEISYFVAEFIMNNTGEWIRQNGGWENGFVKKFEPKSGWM
- experimental details: Bfl-1 TR-FRET assay (FITC-Bid, Tb-anti-GST antibody)
- Assay type: binding
- test conditions: Tables 3-5; read-out: Bfl-1 TR FRET IC50
endpoint label: pIC50
// pIC50 here means minus log10 of the molar concentration (mol/L)

Report pIC50 for `O=C1C(Cl)=C(N2CCN(C/C=C/c3ccccc3)CC2)C(=O)N1c1ccc(Cl)c(Cl)c1` please. 6.14

Report pIC50 for `O=C1C(Cl)=C(N2CCCCC2)C(=O)N1c1ccc(Cl)c(Cl)c1` please. 5.89

Report pIC50 for `CN1CCN(C2=C(Cl)C(=O)N(c3ccccc3Cl)C2=O)CC1` please. 5.84

Report pIC50 for `CN1CCN(C2=C(Cl)C(=O)N(c3ccc(Cl)cc3Cl)C2=O)CC1` please. 5.87
